test system: HepG2; experiment: cytotoxicity call (relative viability < 0.9); settings: 10 µM
Screen size: about 39,000 compounds; about 3,300 (8.5%) were called active. The full list was thinned out, with actives kept by preference.
Outcome codes: 1.0 = active, 0.0 = inactive

smilesNotation	systemTested	cat
C=CCOC(=O)[C@H]1[C@@H]2C(=O)O[C@@H](c3ccccc3)[C@@H](c3ccccc3)N2[C@@H](c2ccc(OCCOC(=O)[C@H]3C[C@H]4C(=O)N[C@@H](CCCC[N+](C)(C)C)C(=O)N4[C@H]3c3ccc(O)cc3)cc2)[C@]12C(=O)Nc1ccc(I)cc12	HepG2	0.0
COc1ccc(CN2C[C@@H](C)[C@H](OC)CN(C)C(=O)c3ccc(NC(=O)c4nc5ccccc5s4)cc3OC[C@H]2C)cc1	HepG2	0.0
C[C@@H]1CCCCO[C@H](CN(C)Cc2ccc(Cl)c(Cl)c2)[C@@H](C)CN([C@@H](C)CO)C(=O)c2cc(NS(=O)(=O)c3ccc(Cl)cc3)ccc2O1	HepG2	1.0
O=C(O)CCc1nc2ccccc2[nH]1	HepG2	0.0
O=C(N[C@@H](c1ccc(F)cc1)c1ccc2ccccc2n1)C1CCN(CCOc2ccc(F)cc2)CC1	HepG2	1.0
C[C@@H]1CCCCO[C@@H](CN(C)S(=O)(=O)c2cccs2)[C@H](C)CN([C@H](C)CO)C(=O)c2cc(NC(=O)c3ccccc3)ccc2O1	HepG2	1.0
C[C@H](CO)N1C[C@H](C)[C@@H](CN(C)Cc2ccc(Cl)c(Cl)c2)OCCCC[C@H](C)Oc2ccc(NS(=O)(=O)c3ccc(Cl)cc3)cc2C1=O	HepG2	0.0
COc1ccc(NC(=O)N2C[C@H](O)COC[C@H]3O[C@@H](CC(=O)NC4Cc5ccccc5C4)CC[C@@H]32)cc1	HepG2	0.0
C[C@@H]1CCCCO[C@@H](CN(C)C(=O)C2CCCCC2)[C@H](C)CN([C@@H](C)CO)C(=O)c2cc(NC(=O)c3ccncc3)ccc2O1	HepG2	0.0
O=C(C[C@@H]1CC[C@H]2[C@@H](COC[C@@H](O)CN2C(=O)c2ccccc2F)O1)N1CCN(c2ccccc2)CC1	HepG2	0.0
C[C@@H]1CCCCO[C@@H](CN(C)S(=O)(=O)c2cccs2)[C@@H](C)CN([C@@H](C)CO)C(=O)c2cc(NC(=O)c3ccccc3)ccc2O1	HepG2	0.0
CC(C)NC(=O)Nc1ccc2c(c1)C(=O)N([C@H](C)CO)C[C@H](C)[C@@H](CN(C)S(=O)(=O)c1cn(C)cn1)OCCCC[C@H](C)O2	HepG2	0.0

###

test system: HepG2; assay: cytotoxicity call (relative viability < 0.9); details: 10 µM
Among all 39,000 compounds or so, about 3,300 (8.5%) were called active. Shown is part of a subset that was picked to be rich in actives.
Outcome codes: active, inactive

compound	systemTested	cat
Cc1noc(C)c1NC(=O)Nc1ccc2c(c1)C(=O)N([C@@H](C)CO)C[C@H](C)[C@@H](CN(C)C(=O)C1CCCCC1)OCCCC[C@@H](C)O2	HepG2	inactive
COc1ccc(COC[C@]23N=C4SCc5ccccc5C(=O)N4[C@H](c4ccccc4O2)[C@H]3CO[Si](C)(C)C(C)(C)C)cc1	HepG2	inactive
COc1ccc(NC(=O)Nc2cccc3c2O[C@@H](CN(C)Cc2ccc(C(F)(F)F)cc2)[C@@H](C)CN([C@@H](C)CO)C3=O)cc1	HepG2	inactive
CCCOc1ccc2nc(NC(=O)OC)[nH]c2c1	HepG2	active
CC(C)NC(=O)c1cccc2cccc(Sc3ccccc3)c12	HepG2	inactive
O=C(O)[C@]1(O)C[C@H](O)[C@@H](O)[C@@H](O)C1	HepG2	inactive
COc1ccc2nc(S(=O)Cc3ncc(C)c(OC)c3C)[nH]c2c1 (stereo not given)	HepG2	inactive
N=C(N)Nc1nc(=O)c2ccccc2[nH]1	HepG2	inactive
CCOC(=O)Nc1nc2ccccc2[nH]1	HepG2	inactive
COC(=O)Nc1nc2ccc(Sc3ccccc3)cc2[nH]1	HepG2	active
